Reported Percentage of cells' defense from C. trachomatis values for the following compounds.
# Test system: Chlamydia trachomatis D323
# test method notes: Protection of cell culture from Chlamydia trachomatis (immunofluorescence, cytoplasmatic inclusions)
# Format: cell-based
# recorded conditions: compound 30 mg/l
assay metric: Percentage of cells' defense from C. trachomatis (%)

INSERT INTO results (compound, quantity_unit, measured_value) VALUES
  ('O=[N+]([O-])c1ccc(C2c3c(O)nc(=S)[nH]c3Oc3[nH]c(=S)nc(Cl)c32)cc1 (stereo not shown)', '%', 60),
  ('Nc1nc(=S)[nH]c2c1C(c1ccc([N+](=O)[O-])cc1)c1c(O)nc(=S)[nH]c1O2 (stereo not shown)', '%', 70),
  ('O=[N+]([O-])c1ccc(C2c3cnc(=S)[nH]c3Oc3[nH]c(=S)nc(O)c32)cc1 (stereo not shown)', '%', 50),
  ('O=[N+]([O-])c1ccc(C2c3c(O)nc(=S)[nH]c3Oc3[nH]c(=S)nc(Sc4nc(O)cc(O)n4)c32)cc1 (stereo not shown)', '%', 60);
